Test system: Caco-2 cells
ASSAY COMMENT: Evaluation of Caco-2 membrane permeability
Format: in vitro ADME
TEST SETTINGS: 10 µM compound in FaSSIF/HBSS pH 6.5 apical, no lauroyl-L-carnitine; HBSS pH 7.4 4% BSA basal; 180 minutes
Bridge positions count the residues as written; N and C are the ends. Square brackets hold non-standard residues; d marks the D form. Peptide text beside a SMILES is read from it. * marks the point of attachment. Phe(3-Cl) = N[C@@H](Cc1cccc(Cl)c1)C(=O)O; NMeF = CN[C@@H](Cc1ccccc1)C(=O)O; NMeD = CN[C@@H](CC(=O)O)C(=O)O; NMeS = CN[C@@H](CO)C(=O)O; Pip = O=C(O)[C@@H]1CCCCN1; Nle = CCCC[C@H](N)C(=O)O; Pyrrolidide = C1CCN(*)C1; dNMeA = CN[C@H](C)C(=O)O; Propyl = CCC*
PROPERTY: Without 5 mM lauroyl-L-carnitine Permeability coefficient (Caco-2 Papp)

{"columns": ["MOLECULE", "DATA VALUE"],
 "data": [
  ["CC[C@H](C)[C@@H]1NC(=O)[C@H](CC(C)C)N(C)C(=O)CC(C(=O)N2CCOCC2)N(C)C(=O)[C@H](C2CCCC2)N(C)C(=O)C2(CCCC2)NC(=O)[C@@H]2CCCN2C(=O)[C@H](CCc2ccc(C(F)(F)F)c(Cl)c2)NC(=O)CN(C)C(=O)[C@H](C2CCCC2)N(C)C(=O)[C@@H]2CCN2C(=O)[C@H](C)NC1=O (single isomer, unassigned)", "<0.00976 ×10⁻⁶ cm/s"],
  ["CCCC[C@@H]1NC(=O)[C@@H]2CCCN2C(=O)[C@H](CCCC)NC(=O)[C@@H](C)N(C)C(=O)C[C@@H](C(=O)N2CCCC2)N(C)C(=O)[C@@H]2CCCN2C(=O)[C@H]([C@@H](C)CC)NC(=O)[C@@H]2CCCCN2C(=O)[C@H](Cc2cccc(Cl)c2)NC(=O)[C@H](COCCC)N(C)C(=O)[C@H](Cc2ccccc2)N(C)C1=O [Compound 5] ([dNMeA][Nle]P[Nle][NMeF][NMeS](Propyl)[Phe(3-Cl)][Pip]IP[NMeD]-Pyrrolidide; lactam N-11)", "0.00372 ×10⁻⁶ cm/s"],
  ["CC[C@H](C)[C@@H]1NC(=O)C(CC(C)C)N(C)C(=O)CC(C(=O)N(C)C)N(C)C(=O)[C@H](C2CCCC2)N(C)C(=O)C(C)NC(=O)C(C)N(C)C(=O)[C@H](CCc2ccc(C(F)(F)F)c(Cl)c2)NC(=O)CN(C)C(=O)[C@H](CC2CCCCC2)N(C)C(=O)[C@@H]2CCN2C(=O)[C@H](C)N(C)C1=O (single isomer, unassigned)", "0.00949 ×10⁻⁶ cm/s"],
  ["CC[C@@H](C)[C@H]1NC(=O)[C@@H](Cc2ccccc2)N(C)C(=O)CN(C)C(=O)C[C@@H](C(=O)N2CCCCC2)NC(=O)[C@@H](CC(C)C)N(C)C(=O)[C@@H](COC(C)(C)C)NC(=O)[C@@H](CC(C)C)N(C)C(=O)[C@@H](CCc2ccccc2)N(C)C(=O)CN(C)C(=O)[C@@H]([C@H](C)O)NC(=O)[C@@H](CC(C)C)N(C)C1=O (stereo in doubt)", "<0.0944 ×10⁻⁶ cm/s"],
  ["CC[C@H](C)[C@@H]1NC(=O)[C@H](CC(C)C)N(C)C(=O)CC(C(=O)N2CCOCC2)N(C)C(=O)[C@H](C2CCCC2)N(C)C(=O)C2(CCCC2)NC(=O)[C@@H]2CCCN2C(=O)[C@H](CCc2ccc(C(F)(F)F)c(Cl)c2)NC(=O)CN(C)C(=O)[C@H](CC2CCCCC2)N(C)C(=O)[C@@H]2CCN2C(=O)[C@H](C)N(C)C1=O (single isomer, unassigned)", "0.0491 ×10⁻⁶ cm/s"]
]}
